- Test system: U-251
- Procedure text: NCI tumour cell line growth inhibition, 48 h
Activity calls are given as the source filed them. No stated cut-off is given here; in the data, active = GI50 up to about 1.1 µM and inactive = higher.
Select the matching outcome among active, inactive

{"columns": ["Compound", "Class assignment"],
 "data": [
  ["CSc1ccccc1P(c1ccccc1SC)c1ccccc1SC", "inactive"],
  ["CCOC(=O)/C(C#N)=C/c1ccc(CO)o1", "inactive"],
  ["O[C@H]1[C@@H]2OC[C@@H](O)[C@H](OCc3ccccc3)[C@@](COCc3ccccc3)(O2)[C@@H]1OCc1ccccc1", "inactive"],
  ["NNC(=S)N/N=C(\\CC1OC(=O)c2ccccc21)c1ccccc1O (centres undefined)", "inactive"],
  ["CC1=NN(c2ccc(S(=O)(=O)O)cc2)C(=O)/C1=C/c1ccc(Cl)cc1.c1ccncc1", "inactive"]
]}

Outcome? COc1ccc(C(=O)C(C(=O)CCC(=O)Nc2cccc(Cl)c2)c2ccc(OC)cc2)cc1 (centres undefined) inactive

And what about the compound CCc1cccc(C)c1NC(=S)NC(=O)c1ccccc1C(=O)NC(=S)Nc1c(C)cccc1CC ? inactive

And what about the compound COC1C(O)=C2C(=O)OC(C)(O)/C=C/C=C\C=C/C=C/C(c3ccccc3)NC(=O)/C=C/C=C/C=C/C=C/C2(C)C1O (centres undefined) ? active

And what about the compound Cn1c(=O)c2c(nc3n2CC(C(=O)O)N3)n(C)c1=O (centres undefined) ? inactive
